Please respond with reported half-life for every item in the list.
test: Terminal half life value in sprague dawley rat was determined at a dosage of 3 mg/kg; format: ADME, organism-based; design: dose 3 mg/kg; conditions: in vivo
One number for each entry, in h.

// below: answered molecules
molecule="N=C(N)c1ccc2cc(C3CC3c3ccc4c(c3)C(C3CCCCC3)=NCC4)ccc2c1 (stereo unspecified)" attribute_measured=half-life value=0.27
molecule=N=C(N)c1ccc2cc(C(=O)Nc3ccccc3)cc(Br)c2c1 attribute_measured=half-life value=1.05
molecule="CN1CCc2ccc(C3CC3c3ccc4cc(C(=N)N)ccc4c3)cc2C1C1CCCCC1 (stereo unspecified)" attribute_measured=half-life value=1.53
molecule="CC(C)C1=NCCc2ccc(C3CC3c3ccc4cc(C(=N)N)ccc4c3)cc21 (stereo unspecified)" attribute_measured=half-life value=1.33
molecule=N=C(N)c1ccc2cc(CCc3ccccc3)ccc2c1 attribute_measured=half-life value=1

Looking up CC(C)C1=NCCc2cc(C3CC3c3ccc4cc(C(=N)N)ccc4c3)ccc21 (stereo unspecified) , I found its half-life recorded as 0.33

Source: ChEMBL document CHEMBL1139552
